# System: DU-145 prostate
# ASSAY_SUMMARY: NCI-60 one-dose screen, 48 h
# CONDITION_INFO: 10 µM
About 83,000 compounds went through this panel and 20% of them were active in at least one assay; those are over-represented in the sample as a whole. The source made the active and inactive calls. Rule for the calls: active = growth percent below 10; inactive = the rest.
The categories you may choose from are 1.0 for active, 0.0 for inactive

Answered examples (4):
• CCc1cc2n(n1)-c1ncc(C(=O)OC)cc1Oc1ccccc1-2 = 0.0
• COC(=O)c1c(C)nc(Nc2nc3ccccc3s2)nc1-c1ccc(Cl)cc1Cl = 0.0
• CS(=O)(=O)Nc1ccc(Nc2c3ccccc3nc3cc(Cl)ccc23)cc1 = 0.0
• COc1ccc(-c2oncc2-c2cc(OC)c3c(c2)OCO3)cc1 = 0.0

# input Identify the outcome logged in this assay for the compound shown: CCOC(=O)c1c(C(F)(F)F)n([O-])c2ccc(OC)cc2[n+]1=O
# output 0.0

# input Identify the outcome logged in this assay for the compound shown: N/C(=N\O)c1cn(C2OC(CO)C(O)C2O)c2ncnc(N)c12 (stereo unspecified)
# output 1.0

----------
# Tested on: SW-620 colon
# ASSAY_SUMMARY: NCI-60 one-dose screen, 48 h
# CONDITION_INFO: 10 µM
The panel holds about 83,000 compounds, 20% with a hit somewhere; the sample as a whole holds those more often. The source made the active and inactive calls. Rule for the calls: active = growth percent below 10; inactive = the rest.
The categories you may choose from are active, inactive

Answered examples (3):
- CCc1cc2n(n1)-c1ncc(C(=O)OC)cc1Oc1ccccc1-2: inactive
- C[N+]1=C(/C=C/c2ccc(I)cc2)C(C)(C)c2ccccc21: inactive
- COC(=O)CCCCCCCCC(C)c1ccc(C(C)=O)cc1 (configuration not stated): inactive

# input Identify the outcome logged in this assay for the molecule shown: Cc1ncc([N+](=O)[O-])n1CCOc1ccc(C(=O)/C=C/c2ccc(C(F)(F)F)cc2)cc1
# output inactive

# input Identify the outcome logged in this assay for the molecule shown: COc1ccc2c(c1)/C(=C/c1cc(OC)c(OC)c(OC)c1)C(=O)N2C
# output active

----------
# Tested on: CCRF-CEM leukemia
# ASSAY_SUMMARY: NCI-60 one-dose screen, 48 h (100 = growth as untreated, 0 = no growth, -100 = all killed)
# CONDITION_INFO: 10 µM
This is part of a sample that, as a whole, favours compounds with a hit. Of some 83,000 tested, about 20% had one in any assay.
# growth per record follows
State the answer as a number, implicitly in %.

The cases that follow already have their growth on record.
* N#CN1CC[C@H](C(=O)Nc2ncc(-c3ccncc3)s2)C1 | 7.15
* COc1cc(C(c2c[nH]c3ccccc23)N2CCCC2)ccc1OCc1ccccc1 (stereo unspecified) | 16.2
* CCCc1ccnc(NS(=O)(=O)c2ccc(N)cc2)n1 | 46.4
* Nc1ncncc1-c1ccc(F)cc1 | 109
* Cc1cc(Cl)ccc1Nc1nc(C(F)(F)F)ccc1C(=O)N/N=C/c1ccccc1Cl | 14.7

# input # value lookup — system CCRF-CEM leukemia, readout growth, item O=C(c1ccccc1)C(Nc1ccccc1)c1ccccc1 (stereo unspecified)
# output 94.1

# input # value lookup — system CCRF-CEM leukemia, readout growth, item CCN(CC)CCOC(=O)c1ccc(N=Nc2ccc(O)c(OC)c2)cc1
# output 99.5

# input # value lookup — system CCRF-CEM leukemia, readout growth, item CCSc1nc2c([nH]1)c(=O)n(C)c(=S)n2C
# output 100

# input # value lookup — system CCRF-CEM leukemia, readout growth, item CC(=O)OC1Oc2ccccc2-c2oc(=O)c(-c3cc(=O)oc4cc(O)ccc34)cc21 (stereo unspecified)
# output 32.1

# input # value lookup — system CCRF-CEM leukemia, readout growth, item Cc1ccc(NS(=O)(=O)c2ccccc2)c(NS(=O)(=O)c2ccccc2)c1
# output 96

# input # value lookup — system CCRF-CEM leukemia, readout growth, item NC(=O)C1CCCN(Cc2c[nH]c3ccccc23)C1 (stereo unspecified)
# output 106

# input # value lookup — system CCRF-CEM leukemia, readout growth, item CCCCCCCCCCCC(c1ccccc1)N(C)C (stereo unspecified)
# output 69.1

# input # value lookup — system CCRF-CEM leukemia, readout growth, item CC(C)OCc1cc(CN2CCN(c3cccc(Cl)c3)CC2)c(O)c2ncccc12
# output -13.4

# input # value lookup — system CCRF-CEM leukemia, readout growth, item O=C1/C(=C/c2ccc([N+](=O)[O-])s2)Oc2ccc(Cl)cc21
# output 2.86

# input # value lookup — system CCRF-CEM leukemia, readout growth, item O=c1ccc2nc(-c3ccccc3)nn(-c3ccccc3)c-2c1
# output -16.3

# input # value lookup — system CCRF-CEM leukemia, readout growth, item COc1ccccc1Cn1cc2c(c1-c1ccccc1)CCc1cnoc1-2
# output 30.5

src = PubChem BioAssay (NCI)
